Biological target: T1, CRBN, Q96SW2;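 also: pooled lentiviral library of zinc finger degron-EGFP fusions in mCherry-positive Jurkat cells, FACS-sorted after compound exposure, with degron abundance counted by next-generation sequencing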
T1 chain: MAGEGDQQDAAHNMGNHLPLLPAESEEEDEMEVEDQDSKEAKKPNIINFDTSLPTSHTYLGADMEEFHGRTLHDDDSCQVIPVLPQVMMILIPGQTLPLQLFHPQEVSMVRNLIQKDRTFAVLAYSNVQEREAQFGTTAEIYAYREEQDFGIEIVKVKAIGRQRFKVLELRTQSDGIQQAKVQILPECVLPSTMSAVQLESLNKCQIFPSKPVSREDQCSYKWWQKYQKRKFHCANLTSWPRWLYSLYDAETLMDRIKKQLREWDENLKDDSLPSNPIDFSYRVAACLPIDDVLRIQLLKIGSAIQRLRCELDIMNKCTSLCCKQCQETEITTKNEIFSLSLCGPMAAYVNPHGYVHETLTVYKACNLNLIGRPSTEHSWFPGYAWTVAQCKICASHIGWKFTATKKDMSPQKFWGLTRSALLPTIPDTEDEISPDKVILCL
Experiment: log2 fold change of degron read counts, EGFP-low vs EGFP+ sorted cells (limma voom), compound-induced degradation; higher = more compound-induced degradation of the degron-EGFP fusion; degrons are variants of IKZF1/3 zinc finger 2; compound dose not given here
Settings: Jurkat; 18 h; compound: thalidomide
Whole data set: some 8,300 sequences, median “log2 fold change of degron read counts, EGFP-low vs EGFP+ sorted cells (limma voom), compound-induced degradation” near -1.1, cut for the highest 2% near 3.2. This excerpt belongs to a sample that is enriched for the highest values.
Let's look at some sequences and their measured log2 fold change of degron read counts.
Answer field: number only, no words.

Req: // returns reported log2 fold change of degron read counts for input LICPICGFCCTQKGNLLRHIKL [46L_47I_49P_50I_52G_53F_54C_55C_67L_, Q9UKT9]
Resp: 2.51

Req: # lookup: log2 fold change of degron read counts of FVCDVCGAAFTQKGNLLRHIKL [46F_47V_49D_50V_52G_53A_54A_55F_67L_, Q9UKT9]
Resp: 1.42

Req: // log2 fold change of degron read counts lookup, key: FVCEVCGARFTQKGNLLRHIKL [46F_47V_49E_50V_52G_53A_54R_55F_67L_, Q9UKT9]
Resp: 3.25

Req: Given the sequence LTCPICGFPCTQKGNLLRHIKL [46L_47T_49P_50I_52G_53F_54P_55C_67L_, Q9UKT9] , what is its reported log2 fold change of degron read counts?
Resp: 1.64

Req: Any idea what log2 fold change of degron read counts was measured for FLCEVCGARFTQKGNLLRHIKL [46F_47L_49E_50V_52G_53A_54R_55F_67L_, Q9UKT9] ?
Resp: 2.09

Further cases:
Req: What measured log2 fold change of degron read counts goes with FRCNICGAVFTQKGNLLRHIKL [46F_47R_49N_50I_52G_53A_54V_55F_67L_, Q9UKT9] ?
Resp: 0.628

Req: What value of measured log2 fold change of degron read counts is listed for LDCPICGFCCTQKGNLLRHIKL [46L_47D_49P_50I_52G_53F_54C_55C_67L_, Q9UKT9] ?
Resp: 1.33

Req: # log2 fold change of degron read counts lookup, item FGCEVCGARFTQKGNLLRHIKL [46F_47G_49E_50V_52G_53A_54R_55F_67L_, Q9UKT9]
Resp: 1.27
